IC50 values for Platelet-activating factor acetylhydrolase (Homo sapiens, UniProt Q13093), compiled from several publications.
Report the figure in nM without appending any unit label.

Asked: Record request: IC50 value, item "Cn1cc(Cc2cn(CC(=O)N(CC(=O)N3CCOCC3)Cc3ccc(-c4ccc(C(F)(F)F)cc4)cc3)c(SCc3ccc(F)cc3)nc2=O)cn1"
Given back: 0.1

Asked: Record request: IC50 value, item "Cn1cc(Cc2cn(CC(=O)N3CCN(c4ccc(Cl)cc4)CC3)c(SCc3ccc(F)cc3)nc2=O)cnc1=O"
Given back: 70

Asked: Record request: IC50 value, item "O=C(CCCCCCCSc1ncc(Cc2cncnc2)c(O)n1)c1ccc(Cl)cc1"
Given back: 54

Asked: Record request: IC50 value, item "CC(C)(C)c1ncc(Cc2cn(CC(=O)N3CCN(c4ccc(Cl)cc4)CC3)c(SCc3ccc(F)cc3)nc2=O)cn1"
Given back: 34

Asked: Record request: IC50 value, item "O=C(Cn1cc(Cc2cncnc2)c(=O)nc1SCc1ccc(F)cc1)N1CCN(c2cncnc2)CC1"
Given back: 410

Asked: Record request: IC50 value, item "Cc1ccc(Cc2cnc(SCCCCCCOCc3ccc(Cl)cc3)[nH]c2=O)cn1"
Given back: 1200

Asked: Record request: IC50 value, item "O=C(CCCCCCCSc1ncc(Cc2cnccn2)c(=O)[nH]1)c1ccc(Cl)cc1"
Given back: 640

Asked: Record request: IC50 value, item "O=S(=O)(CCCCCCCSc1ncc(Cc2cccnc2)c(O)n1)c1ccc(Cl)cc1"
Given back: 12600

Asked: Record request: IC50 value, item "Cc1ccc(Cc2cnc(SCCCCCCCc3ccccc3)nc2O)cn1"
Given back: 1000

---

Sequence of the target: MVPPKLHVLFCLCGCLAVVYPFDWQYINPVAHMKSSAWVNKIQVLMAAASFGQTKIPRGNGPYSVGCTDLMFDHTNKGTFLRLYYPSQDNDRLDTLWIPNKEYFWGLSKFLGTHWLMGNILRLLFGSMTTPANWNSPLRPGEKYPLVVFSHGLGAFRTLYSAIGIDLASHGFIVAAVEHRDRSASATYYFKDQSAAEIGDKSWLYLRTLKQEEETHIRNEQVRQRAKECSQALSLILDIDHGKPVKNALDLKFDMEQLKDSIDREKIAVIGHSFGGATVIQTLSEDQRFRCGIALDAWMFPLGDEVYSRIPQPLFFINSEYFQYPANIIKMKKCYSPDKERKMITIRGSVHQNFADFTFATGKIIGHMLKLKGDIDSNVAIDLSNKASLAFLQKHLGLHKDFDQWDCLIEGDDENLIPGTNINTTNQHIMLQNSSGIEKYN
IC50 values for the protein given by its sequence, compiled from several publications.
Report the figure in nM without appending any unit label.

Asked: Record request: IC50 value, item "O=C(Cn1cc(Cc2cncnc2)c(=O)nc1SCc1ccc(F)cc1)N1CCNCC1"
Given back: 460

Asked: Record request: IC50 value, item "Cn1cc(Cc2cn(CC(=O)N3CCN(Cc4ccccc4)C(=O)C3)c(SCc3ccc(F)cc3)nc2=O)cn1"
Given back: 530

Asked: Record request: IC50 value, item "N#C/C(=N\OC(=O)N1CCOCC1)c1ccccc1"
Given back: 120

Asked: Record request: IC50 value, item "COc1ncc(Cc2cn(CC(=O)N(CC(=O)N(C)C)Cc3ccc(-c4ccc(Cl)cc4)cc3)c(SCc3ccc(F)cc3)nc2=O)cn1"
Given back: 0.2

Asked: Record request: IC50 value, item "O=C(Cn1cc(Cc2cncnc2)c(=O)nc1SCc1ccc(F)cc1)N1CCN(c2ccccn2)CC1"
Given back: 350

Asked: Record request: IC50 value, item "COc1cc(Cc2cnc(SCCCCCCCCc3ccccc3)nc2O)ccn1"
Given back: 1000

Asked: Record request: IC50 value, item "Cn1cc(Cc2cn(CCCC(=O)N3CCN(c4ccc(C(F)(F)F)cc4)CC3)c(SCc3ccc(F)cc3)nc2=O)cn1"
Given back: 5

Asked: Record request: IC50 value, item "COc1ncc(Cc2cn(CC(=O)N(CCO)Cc3ccc(-c4ccc(Cl)cc4)cc3)c(SCc3ccc(F)cc3)nc2=O)cn1"
Given back: 0.2

Asked: Record request: IC50 value, item "O=c1[nH]c(SCCCCCCc2ccccc2)ncc1Cc1cccnc1"
Given back: 2300
